Values compiled from ChEMBL document CHEMBL1201862.

Molecular target: Corticotropin-releasing factor receptor 2/Corticotropin-releasing factor-binding protein (Homo sapiens, UniProt P24387+Q13324)
Sequence (Q13324 whole entry): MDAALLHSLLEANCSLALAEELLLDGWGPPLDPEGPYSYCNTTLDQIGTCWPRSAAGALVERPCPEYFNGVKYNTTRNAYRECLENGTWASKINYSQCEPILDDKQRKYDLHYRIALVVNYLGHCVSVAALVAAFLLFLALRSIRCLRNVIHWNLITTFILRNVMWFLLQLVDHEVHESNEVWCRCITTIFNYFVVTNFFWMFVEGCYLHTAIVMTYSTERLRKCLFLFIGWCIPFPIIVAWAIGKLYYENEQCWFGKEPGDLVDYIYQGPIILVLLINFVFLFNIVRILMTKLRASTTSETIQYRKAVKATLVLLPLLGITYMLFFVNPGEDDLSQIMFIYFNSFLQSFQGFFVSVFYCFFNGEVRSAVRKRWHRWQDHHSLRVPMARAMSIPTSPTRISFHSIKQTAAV
Sequence (P24387 whole entry): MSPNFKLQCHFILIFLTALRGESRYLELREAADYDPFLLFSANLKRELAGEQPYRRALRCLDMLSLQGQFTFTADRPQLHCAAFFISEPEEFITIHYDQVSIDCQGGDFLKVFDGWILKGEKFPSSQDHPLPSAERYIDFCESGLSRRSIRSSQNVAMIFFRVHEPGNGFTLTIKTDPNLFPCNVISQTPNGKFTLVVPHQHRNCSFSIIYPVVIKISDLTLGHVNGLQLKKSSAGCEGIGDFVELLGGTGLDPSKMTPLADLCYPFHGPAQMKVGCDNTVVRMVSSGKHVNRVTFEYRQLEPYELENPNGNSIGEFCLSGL
Assay: activators of CRF receptor 2 with binding protein – uHTS hits, confirmation (AID 602473)
Assay type: functional
Details: read-out: EC50_Mean
Active and inactive are the calls of the source. No stated cut-off is given here; in the data, actives have a measured EC50 and inactives only a lower limit.
Listing of entries alongside the reported EC50.

The cases that follow already have their EC50 on record.
INSERT INTO assay_data (molecule, meas_value) VALUES
  ('CC(Nc1ccc([N+](=O)[O-])cc1[N+](=O)[O-])c1ccccc1 (stereo not drawn)', '> 53 µM (inactive)'),
  ('CCc1ccccc1/N=C/c1c(C)c(C#N)c2nc3ccccc3n2c1O', '4.75 µM (active)'),
  ('COc1cccc(NC(=S)NC(Cc2ccccc2)c2ccccc2)c1 (stereo not drawn)', '> 53 µM (inactive)'),
  ('O=C(NCc1ccccc1)c1ccc(Cl)cc1', '> 53 µM (inactive)'),
  ('C=CCn1c(SCc2c(C)noc2C)nc2sc(C)c(C)c2c1=O', '> 53 µM (inactive)');

## Task Given CCOc1ccc(C2C(C#N)=C(N)N3C(=C2C#N)Sc2ccccc23)cc1 (stereo not drawn) , state its recorded EC50.
## Result 8.06 µM (active)

## Task Given O=C1CC2CS(=O)(=O)CC2N1c1ccc(Oc2ccccc2)cc1 (stereo not drawn) , state its recorded EC50.
## Result > 53 µM (inactive)

## Task Given CN1C(c2ccc(F)cc2)=CS/C1=C(/C#N)c1nnc(N2CCOCC2)n1-c1ccccc1 , state its recorded EC50.
## Result > 53 µM (inactive)
